- System: full length human vWF (SEQ ID NO 7)
- method_notes: dot blot KD determination and extent of binding, full length human vWF;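 note: dot blot binding of aptamers to full length human vWF across a protein titration, incubated 30 minutes at room temperature in 1x DPBS with BSA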
- measurement_context: Phase 4 and 5 modification; extent of aptamer binding at 100 nM full length human vWF
Oligonucleotides are written 5' to 3', each unit as a sugar letter and its base; * is a phosphorothioate linkage, no mark a phosphodiester; rarer units and linkages stand in square brackets, end groups in braces. Plain capitals give the bases only. [PEG] = polyethylene glycol spacer within the chain; [invdT] = inverted (3'-3') thymidine; d = 2'-deoxy (DNA); m = 2'-O-methyl

substance	tested_target	% binding @ 100 nM vWF, %
mCmGmUdGdCdAmGmUmGmCmCPEGmGmGmCdCmG-s-TmGdCdGdGTmGmCdCmUdCdCmGmUmCmAmCmG-3T (mCmGmUdGdCdAmGmUmGmCmC[PEG]mGmGmCdCmG*dTmGdCdGdGdTmGmCdCmUdCdCmGmUmCmAmCmG[invdT]; aptamer) [ARC1532]	full length human vWF (SEQ ID NO 7)	19.3
mCmCmGmGmCdCmG-s-TmGdCdGdGTmGmCdCmUdCdCmGmUdCmAmCmGmUmUmCmCmGmUdGdCdAmGmUmGmCmCmGmG-3T (mCmCmGmGmCdCmG*dTmGdCdGdGdTmGmCdCmUdCdCmGmUdCmAmCmGmUmUmCmCmGmUdGdCdAmGmUmGmCmCmGmG[invdT]; aptamer) [ARC1546]	full length human vWF (SEQ ID NO 7)	26
mGmCmGmUdGdCdAmGmUmGmCmCPEGmGmGmCdCmG-s-TmGdCdGdGTmGmCdCmUdCdCmGmUdCmAmCmGmC-3T (mGmCmGmUdGdCdAmGmUmGmCmC[PEG]mGmGmCdCmG*dTmGdCdGdGdTmGmCdCmUdCdCmGmUdCmAmCmGmC[invdT]) [ARC1527]	full length human vWF (SEQ ID NO 7)	14.1
mGmCmGmUdGdCdAmGmUmGmCmCPEGmGmGmCdCmG-s-TmGdCdGdGTmGmCdCmUdCdCmGmUmCmAmCmGmC-3T (mGmCmGmUdGdCdAmGmUmGmCmC[PEG]mGmGmCdCmG*dTmGdCdGdGdTmGmCdCmUdCdCmGmUmCmAmCmGmC[invdT]; aptamer) [ARC1528]	full length human vWF (SEQ ID NO 7)	10.2

Reference for the values: patent US7998940B2
